Measured Kd, listed per entry for reference.
Target: T1, huIL1RAP ECD recombinant protein (human, UniProt Q9NPH3 21-367)
T1 construct: also called recombinant human IL1RAP-ECD; recombinant human IL1RAP; not shown: C-terminal histidine tag for purification
Assay: Octet BLI, antibody on Protein A biosensor, recombinant huIL1RAP ECD
value_type: Kd (nM)

[[record]]
binder = "26C5_15B4 (antibody, V domains shown, Recombinant human antibody) VH: EAQLLESGGGLVQPGGSLRLSCAASGFTFSSYAMSWVRQAPGKGLEWVSTISGSGGSTHYADSVKGRFTISRDNSKNTLYLQMNSLRAEDTAVYYCVRDYYYGMDVWGQGTTVTVSS VL: EIVLTQSPATLSLSPGERATLSCRASQSVSSYLAWYQQKPGQAPRLLIYDASNRATGIPARFSGSGSGTDFTLTISSLEPEDFAVYYCQQRSYWPPTFGQGTKLEIK"
assay_value = 127

[[record]]
binder = "44E5_15C5 (antibody, V domains shown) VH: QVQLVESGGGVVQPGRSLRLSCAASGFTFRSHGMHWVRQAPGKGLEWVAVIWYDGSSDYYADSVKGRFTISRDNSKNTLFLQMNSLSAEDTAVYYCARENVYGSGWFFDYWGQGTLVTVSS VL: EIVMTQSPATLSVSPGERASLSCRASQSVGSNLAWYQQKPGQAPRLLIFGASTRATGIPARFSGSRSGTEFTLTISSLQSEDFALYYCQQYNNWPPWTFGQGTKLEIK"
assay_value = 0.4

[[record]]
binder = "10C8_C43A (antibody, V domains shown, Cys43Ala variant of 10C8_15A1) VH: QVQLVESGGGVVQPGRSLRISCAASGFTFRSYGMHWVRQAPGKGLEWVAIIWHDESYKYYVDSVKGRFTISRDNSKNTLYLQMNSLRAEDTAVYYCARGDYYGSGSYYDAFDIWGQGTMVTVSS VL: DIQMTQSPSSLSASVGDRVIITCRASQGISNYLAWFQQKPGKAPNLLIYAASTLRSGVPSRFSGSGSGTDFTLTISSLQPEDVATYYCQKYNSAPYTFGQGTKVEIK"
assay_value = 13

[[record]]
binder = "16H2_17D1 (antibody, V domains shown, Recombinant human antibody) VH: EVQLLESGADLVQPGGSLRLSCAASGFTFSSYAMSWVRQAPGKGLEWVSTIRISGGTTYYADSVKGRFTISRDNSKNTLYLQMNSLRAEDTAVYYCVRDYYNGMDVWGQGTTVTVSS VL: EIVLTQSPATLSLSPGERATLSCRASQRVSSYLAWYQQKPGQAPRLLIYDASNRATGIPARFSGSGSGTDFTLTISSLEPEDFAVYYCQQRSYWPPAFGQGTKLEIK"
assay_value = 50

[[record]]
binder = "36A10_21B6 (antibody, V domains shown) VH: QGQVVESGGGVVQPGRSLRLSCAASGFTFSSYTLHWVRQAPGKGLEWVAVIWYDGSNKYYVDSVKGRFTISRDNSKNTLYLQMNSLRAEDTAVYYCAREYGSGSYYNVYYGMDVWGQGTTVTLSS VL: DIVMTQSPLSLPVTPGEPASISCRSSQSLLHSNGYNYLDWYLQKPGQSPHLLIYLASNRASGVPDRFSGSGSGTDFTLKISRVEAEDVGFYYCMQTLQIPLTFGGGTKVEIK"
assay_value = 0.4

[[record]]
binder = "38G11_28A2 (antibody, V domains shown, Recombinant human antibody) VH: EVQLVESGGGLVQPGGSLRLSCAASGFTFSSYWMSWVRQAPGKGLEWVANIKQDGSEKHYVDSVKGRFTISRDNAKNSLYLQMNSLRAEDTAVYYCAREGYFGSGYFDYWGQGTLVTVSS VL: DIQLTQSPSFLSASVGDRVTITCRASQGISSYLAWYQQKPGKAPKLLIYAASTLQSGVPSRFSGSGSGTEFTLTISSLQPEDFATYYCQQYSFYSHTFGQGTKLEIK"
assay_value = 29

[[record]]
binder = "34D1_21B3 (antibody, V domains shown, Recombinant human antibody) VH: QGQLVESGGGVVQPGRSLRLSCAASGFTFSSYTLHWVRQAPGKGLEWVAVIWYDGSNKYYVDSVKGRFTISRDNSKNTLYLQMNSLRAEDTAVYYCAREYGSGSYYNVYYGMDVWGQGTTVTVSS VL: DIVMTQSPLSLPVTPGEPASISCRSSQSLLHSNGYKYLDWYLQKAGQSPHLLIYLGSNRASGVPDRFSGSGSGTDFTLKISRVEAEDVGFYYCMQTLQIPLTFGGGTKLEIK"
assay_value = 3

[[record]]
binder = "5G8_18A1 (antibody, V domains shown) VH: QVELQESGPGLVKPSDTLSLTCTVTGGSISTYYWSWIRQPPGKGLEWIGYIFYTGTTNYNPSLKSRVTISVDASKNQFSLKLNSVTAADTAVYYCARDGSLDYWGQGALVTVSS VL: DIQMTQSPSSLSASVGDRVTITCRASQSISNYLNWYQQKPGKAPKLLIFVASLLQSGVPSRFSGSGSGTDFTLTISSLQPEDFATYYCQQSYSTPFTFGPGTKLEIK"
assay_value = 0.4

[[record]]
binder = "39G1_21C4 (antibody, V domains shown) VH: QVQLQESGPGLVKPSETLSLTCAVSGYSASGVYYWGWIRQPPGKGLEWIGNIYHSGSTYYNPSLERRVSISLDTSKNHFSLRLNFVTAADTAVYYCARDRFDAFDIWGQGTMVTVSS VL: EIVMTQSPATLSVSPGERATLSCRASQSINNILAWYQQKPGQAPRLLIYGASTRATGIPARFSGSGSGTEFTLTISSLQSEDFAVYYCQQYNNWPLTFGGGTKVEIK"
assay_value = 1.6

[[record]]
binder = "24G3_17C5 (antibody, V domains shown, Recombinant human antibody) VH: EVQLLESGGGLVQRGGSLRLSCAASGFTFSSYAMSWVRQAPGKGLEWVSSISGSGDSTNYADSVKGRFTISRDNSKNTLHLQMNSLRAEDTAVYYCVRDYYYGMDVWGHGTTVTVSS VL: EIVLTQSPATLSLSPGERATLSCRASQSVNSYLAWYQQKPGQAPRLLIYDASNRATGIPARFSGSGSGTDFTLTISSLEPEDFAVYYCQQRSYWPITFGQGTRLEIK"
assay_value = 37

